Data origin: ChEMBL document CHEMBL5303304

Tested on: U2OS
method.summary: Incucyte cell viability with U2OS; also: unitless GR value; below 1 slowed growth and below 0 cell loss
Format: toxicity, cell-based
assay.conditions: human, 24 h, 10 µM, compound concentration 10 uM, replicate number 2
// assign Y if Growth Rate falls strictly below 0.9, else N (ties count as N)

// below: answered compounds
Determine if CCn1c(-c2ccncc2)cc2c1CCNC2=O shows Growth Rate strictly lower than 0.9.
Y

Moving on to O=c1[nH]c(CS[C@H]2CC[C@H](O)CC2)nc2cc(OCC3CC3)cc(F)c12
Y

Moving on to Cn1c(Nc2c(Cl)cccc2Cl)nc2ccc3nc[nH]c(=O)c3c21
Y

Moving on to NS(=O)(=O)c1cncc(-c2nc(NCc3ccccn3)c3c(-c4ccccc4)cccc3n2)c1
Y

Moving on to CCn1c(-c2nonc2N)nc2ccccc21 [GW549034X]
N

Moving on to FC(F)(F)Oc1ccc(-c2ccc3nnc(C(F)(F)F)n3c2)cc1
N

Moving on to CCc1ccccc1C(=O)Nc1n[nH]c2c(C)c(F)c(C3C(C#N)=C(C)N(C)C(C)=C3C#N)cc12
Y

Continuing:
Determine if CS(=O)(=O)CCNCc1ccc(-c2ccc3ncnc(Nc4ccc(OCc5cccc(F)c5)c(Cl)c4)c3c2)o1 shows Growth Rate strictly lower than 0.9.
N

---

System: Fibroblast
method.summary: Incucyte cell viability with human fibroblast; also: unitless GR value; below 1 slowed growth and below 0 cell loss
Format: toxicity, cell-based
assay.conditions: 18 h, 10 µM, compound concentration 10 uM, replicate number 1
Listed here: items and their measured Growth Rate.

Field: example entries. Status: answers known.
What Growth Rate appears in the records for this molecule with Fibroblast? CNC(=O)COc1cc2cc(Nc3nc(N4C[C@H](C)C[C@H](C)C4)ncc3Cl)ccc2n(C)c1=O
0.7

Moving on to CC(C)c1nc2c(c3c1[C@H](c1ccc(C(F)(F)F)cc1)OC31CCOCC1)[C@H](O)CC(C)(C)C2
-0.17

Moving on to Cc1nc2c(cc1F)c(-c1nnc3c(n1)NC(=O)C3(C)C)nn2Cc1cccc(F)c1F
0.85

Moving on to CN(C(=O)c1cnn2cccnc12)c1cc2c(cc1N1CCOCC1)C(=O)N(C[C@@H](F)C(C)(C)O)C2
0.7

Moving on to CN1CC[C@@]23CCCC[C@@H]2[C@@H]1Cc1ccc(O)cc13.O=C(O)C(O)C(O)C(=O)O
0.72

Query molecule follows.
What Growth Rate appears in the records for this molecule with Fibroblast? CC[C@]1(C)C[C@@H](OC(=O)CSc2nnc(N)[nH]2)[C@@]2(C)[C@H](C)CC[C@@]3(CCC(=O)[C@H]32)[C@@H](C)[C@@H]1O
0.7

---

Test system: U2OS
method.summary: Incucyte cell viability with U2OS; also: unitless GR value; below 1 slowed growth and below 0 cell loss
Assay type: toxicity, cell-based
assay.conditions: human, 12 h, 10 µM, compound concentration 10 uM, replicate number 1
endpoint: Growth Rate
// no unit, no text: just the number

So what does the record say about Growth Rate for Cc1ccc(-n2nc(C(C)(C)C)cc2NC(=O)Nc2ccccc2F)cc1 ?
0.91

Moving on to CC(C)(C)S(=O)(=O)c1ccc2nccc(Nc3n[nH]c4ccc(F)cc34)c2c1
0.21

Moving on to COc1cc(-c2cc(-c3cccc(O)c3)cnc2N)cc(OC)c1OC
0.89

Moving on to Cc1nnc2n1-c1sc3c(c1C(c1ccccc1Cl)=NC2)CC(C(=O)N1CCOCC1)C3 (centres undefined) [BEPAFANT]
0.9

Moving on to Cc1cc(Nc2ncc(Cl)c(Nc3ccccc3S(=O)(=O)C(C)C)n2)c(OC(C)C)cc1C1CCNCC1 [CERITINIB]
-0.79

Moving on to O=C(Nc1ccccc1Br)N[C@@H]1CCN(c2ccc(C(F)(F)F)cn2)C1 [SB-705498]
0.83

Moving on to CCCCCCCC/C=C\CCCCCCCC(=O)NCCO [OLEOYLETHANOLAMIDE]
0.87

Moving on to CCN(CC)C/C=C/C(=O)Nc1cc2c(Nc3ccc(F)c(Cl)c3)ncnc2cc1OCC1CC1
-0.19

Query compound follows.
So what does the record say about Growth Rate for CNC(=O)c1cc(C(=O)NC2CC2)cn(Cc2ccccc2)c1=O [GSK620] ?
0.69
